Cited source for all entries: patent EP4610269A1

target: uPAR-expressing HEC-265 human endometrial adenocarcinoma cells (Homo sapiens)
Sequence (Q03405 23-335): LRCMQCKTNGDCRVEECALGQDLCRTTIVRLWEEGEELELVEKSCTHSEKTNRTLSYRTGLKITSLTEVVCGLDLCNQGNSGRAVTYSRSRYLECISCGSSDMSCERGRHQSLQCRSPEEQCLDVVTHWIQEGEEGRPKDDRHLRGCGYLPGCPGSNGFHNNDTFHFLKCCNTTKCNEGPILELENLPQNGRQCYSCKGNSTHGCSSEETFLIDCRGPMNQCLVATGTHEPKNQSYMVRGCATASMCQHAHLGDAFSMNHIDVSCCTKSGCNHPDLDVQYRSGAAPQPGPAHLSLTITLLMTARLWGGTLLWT
*1 amine or outer side, *2 acyl side, *3 side chain or, on linkers, in order; H or OH if unused. Where a SMILES comes first, the peptide text is derived from it. Bridges are numbered along the chain shown (N, C = ends). [ ]: non-standard residue; d: D form. The star is where a group is joined. Hyp = O=C(O)[C@@H]1C[C@@H](O)CN1; tBuAla = CC(C)(C)C[C@H](N)C(=O)O; Pentanoyl(4-Me) = CC(C)CCC(=O)*; Cit = NC(=O)NCCC[C@H](N)C(=O)O; Nle = CCCC[C@H](N)C(=O)O; Nva = CCC[C@H](N)C(=O)O; Pentanoyl = CCCCC(=O)*; CH2 = C([*:1])[*:2]
For each of the molecules below, state its IC50.

Record CCCC[C@@H]1NC(=O)[C@H](CCCNC(=N)N)NC(=O)[C@@H](NC(=O)[C@H](CC(C)C)NC(=O)[C@H](CC(=O)O)NC(C)=O)CSSC[C@@H](C(N)=O)NC(=O)[C@H](CC(C)C)NC(=O)[C@@H](CC(C)C)NC(=O)[C@H](C)NC(=O)[C@@H]2CCCN2C(=O)[C@H](Cc2ccccc2)NC(=O)[C@H](Cc2ccc(O)cc2)NC1=O [UPAR-420] (Ac-DLCR[Nle]YFPA[dL]LC-NH2; disulfide 3-12) , field IC50: 39.8 to 100 nM

Record CCCCC(=O)N[C@H]1CSCSC[C@@H](C(N)=O)NC(=O)[C@H](CCC)NC(=O)[C@H]([C@@H](C)CC)NC(=O)[C@@H]2C[C@@H](O)CN2C(=O)[C@@H]2CCCN2C(=O)[C@H](Cc2ccccc2)NC(=O)[C@H](Cc2ccc(O)cc2)NC(=O)[C@H](CCC(N)=O)NC(=O)[C@H](CCCNC(N)=O)NC1=O [UPAR-215] (Pentanoyl-C[Cit]QYFP[Hyp]I[Nva]C-NH2; linker 1-10 via CH2) , field IC50: 12.6 to 31.6 nM

Record CC(C)CCC(=O)N[C@H]1CSSC[C@@H](C(N)=O)NC(=O)[C@H](CC(C)C)NC(=O)[C@H](C)NC(=O)[C@@H](C)NC(=O)[C@@H]2CCCN2C(=O)[C@H](Cc2ccccc2)NC(=O)[C@H](Cc2ccc(O)cc2)NC(=O)[C@H](CCC(N)=O)NC(=O)[C@H](CCCNC(N)=O)NC1=O [UPAR-164] ({Pentanoyl(4-Me)}-C[Cit]QYFP[dA]ALC-NH2; disulfide 1-10) , field IC50: ≥ 126 nM

Record CCCCC(=O)N[C@H]1CSSC[C@@H](C(N)=O)NC(=O)[C@H](CCC)NC(=O)[C@H](CC(C)(C)C)NC(=O)[C@@H]2C[C@@H](O)CN2C(=O)[C@@H]2CCCN2C(=O)[C@H](Cc2ccccc2)NC(=O)[C@H](Cc2ccc(O)cc2)NC(=O)[C@H](CCC(N)=O)NC(=O)[C@H](CCCNC(=N)N)NC1=O [UPAR-370] (Pentanoyl-CRQYFP[Hyp][tBuAla][Nva]C-NH2; disulfide 1-10) , field IC50: ≤ 10 nM

Record CCCCC(=O)N[C@H]1CSSC[C@@H](C(N)=O)NC(=O)[C@H](CCC)NC(=O)[C@H]([C@@H](C)CC)NC(=O)[C@@H]2C[C@@H](O)CN2C(=O)[C@@H]2CCCN2C(=O)[C@H](Cc2ccccc2)NC(=O)[C@H](Cc2ccc(O)cc2)NC(=O)[C@H](CCCCN)NC(=O)[C@H](CCCNC(=N)N)NC1=O [UPAR-448] (Pentanoyl-CRKYFP[Hyp]I[Nva]C-NH2; disulfide 1-10) , field IC50: ≤ 10 nM

###

target: human uPAR (uPAR-Fc) (Homo sapiens, UniProt Q03405); construct: comprising amino acids Leu23-Arg303 according to UniProt entry Q03405.1; purchased R&D Systems 10378-UK-100; assay: Surface plasmon resonance (SPR) assay, single cycle kinetics; type: binding; conditions: pKD category for uPAR SPR activity assay; uPAR-Fc on Protein A-Chip, single cycle kinetics, 25°C; read-out: pKD CAT (converted)
Sequence (Q03405 23-303): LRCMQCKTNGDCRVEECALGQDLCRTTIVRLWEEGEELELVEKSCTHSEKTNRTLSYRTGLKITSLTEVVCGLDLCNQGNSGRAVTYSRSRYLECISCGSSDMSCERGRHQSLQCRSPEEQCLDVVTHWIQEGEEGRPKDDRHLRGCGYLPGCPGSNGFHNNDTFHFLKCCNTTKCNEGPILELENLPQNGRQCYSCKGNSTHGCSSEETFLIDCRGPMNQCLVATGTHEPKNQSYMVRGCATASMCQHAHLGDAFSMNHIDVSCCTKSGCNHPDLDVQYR
*1 amine or outer side, *2 acyl side, *3 side chain or, on linkers, in order; H or OH if unused. Where a SMILES comes first, the peptide text is derived from it. Bridges are numbered along the chain shown (N, C = ends). [ ]: non-standard residue; d: D form. The star is where a group is joined. Pro(trans-4-NH2) = O=C([C@@H]1C[C@@H](N[*:3])CN1[*:1])[*:2]; DOTA = O=C(O)CN1CCN(CC(=O)O)CCN(CC(=O)*)CCN(CC(=O)O)CC1; X5 = O=C(O)CN1CCN(CC(=O)O)CCN([C@H](CCC(=O)*)C(=O)O)CC1; Pro(cis-4-F) = O=C(O)[C@@H]1C[C@H](F)CN1; Dopa = N[C@@H](Cc1ccc(O)c(O)c1)C(=O)O; Hyp = O=C(O)[C@@H]1C[C@@H](O)CN1; dCit = NC(=O)NCCC[C@@H](N)C(=O)O; Pentanoyl(4-Me) = CC(C)CCC(=O)*; Cha = N[C@@H](CC1CCCCC1)C(=O)O; Cit = NC(=O)NCCC[C@H](N)C(=O)O; Butoxycarbonyl = CCCCOC(=O)*; Ac6c = NC1(C(=O)O)CCCCC1; Nva = CCC[C@H](N)C(=O)O; Pentanoyl = CCCCC(=O)*
For each of the compounds below, state its Kd.

Record CC[C@H](C)[C@@H]1NC(=O)[C@@H](C)NC(=O)[C@@H]2CCCN2C(=O)[C@H](Cc2ccccc2)NC(=O)[C@H](Cc2ccc(O)cc2)NC(=O)[C@H](CCC(N)=O)NC(=O)[C@@H](CCCNC(N)=O)NC(=O)[C@@H](NC(=O)CCC(C)C)CSSC[C@@H](C(N)=O)NC(=O)[C@H](CC(C)C)NC1=O [UPAR-364] ({Pentanoyl(4-Me)}-C[dCit]QYFP[dA]ILC-NH2; disulfide 1-10) , field Kd: > 100 nM

Record CCCCC(=O)N[C@H]1CSSC[C@@H](C(N)=O)NC(=O)[C@H](CCC)NC(=O)[C@H]([C@@H](C)CC)NC(=O)[C@@H]2C[C@@H](O)CN2C(=O)[C@@H]2CCCN2C(=O)[C@H](Cc2ccccc2)NC(=O)[C@H](CC2CCCCC2)NC(=O)[C@H](CCC(N)=O)NC(=O)[C@H](CCCNC(=N)N)NC1=O [UPAR-373] (Pentanoyl-CRQ[Cha]FP[Hyp]I[Nva]C-NH2; disulfide 1-10) , field Kd: < 1.58 nM

Record CCCCOC(=O)N[C@H]1CSSC[C@@H](C(N)=O)NC(=O)[C@H](CCC)NC(=O)[C@H]([C@@H](C)CC)NC(=O)[C@@H]2C[C@@H](O)CN2C(=O)[C@@H]2C[C@H](F)CN2C(=O)[C@H](Cc2ccccc2)NC(=O)[C@H](Cc2ccc(O)c(O)c2)NC(=O)[C@H](CCCCNC(=O)CC[C@H](C(=O)O)N2CCN(CC(=O)O)CCN(CC(=O)O)CC2)NC(=O)[C@H]([C@@H](C)O)NC1=O [UPAR-444] (Butoxycarbonyl-CTK(X5)[Dopa]F[Pro(cis-4-F)][Hyp]I[Nva]C-NH2; disulfide 1-10) , field Kd: < 1.58 nM

Record CCC[C@@H]1NC(=O)[C@H]([C@@H](C)CC)NC(=O)[C@@H]2C[C@@H](O)CN2C(=O)[C@@H]2CCCN2C(=O)[C@H](Cc2ccccc2)NC(=O)[C@H](Cc2ccc(O)cc2)NC(=O)[C@H](CCC(N)=O)NC(=O)[C@H](CCCNC(=N)N)NC(=O)[C@@H](NC(=O)C2(NC(C)=O)CCCCC2)CSSC[C@@H](C(N)=O)NC1=O [UPAR-482] (Ac-[Ac6c]CRQYFP[Hyp]I[Nva]C-NH2; disulfide 2-11) , field Kd: < 1.58 nM

Record CC[C@H](C)[C@@H]1NC(=O)[C@@H]2C[C@@H](NC(=O)CN3CCN(CC(=O)O)CCN(CC(=O)O)CCN(CC(=O)O)CC3)CN2C(=O)[C@@H]2CCCN2C(=O)[C@H](Cc2ccccc2)NC(=O)[C@H](Cc2ccc(O)cc2)NC(=O)[C@H](CCC(N)=O)NC(=O)[C@H](CCCNC(N)=O)NC(=O)[C@@H](NC(=O)CCC(C)C)CSSC[C@@H](C(N)=O)NC(=O)[C@H](CC(C)C)NC1=O [UPAR-389] ({Pentanoyl(4-Me)}-C[Cit]QYFP[Pro(trans-4-NH2)](DOTA)ILC-NH2; disulfide 1-10) , field Kd: < 1.58 nM
